For each of the compounds below, state its inhibition at 1 µM.
- Tested Target: UniProt:P21554
- Test Name: Binding assay, cannabinoid CB1 receptor ([3H]-CP-55,940 displacement)
- Design: expressed in transfected cells; host or cells: SK-N-MC cells, pcDNA3 CB-1 (human), semi-purified membranes
- Settings: test concentration 1 μM (superscript b); read-out: CB1 binding percent inhibition

In [3]: df
Out[3]:
                  compound_structure_string   tested_target  experimental_result
0  C[C@@H](NS(=O)(=O)/C=C/c1nn(Cc2ccccc2)c2c1CS(=O)(=O)CC2)c1ccccc1  UniProt:P21554                   6%
1  C[C@H](NS(=O)(=O)/C=C/c1nn(Cc2ccccc2)c2c1CSCC2)C1CCCCC1  UniProt:P21554                  15%
2  C[C@@H](NS(=O)(=O)/C=C/c1c2c(nn1Cc1ccccc1)CCS(=O)(=O)C2)C1CCCCC1  UniProt:P21554                   0%

For `C[C@H](NS(=O)(=O)/C=C/c1c2c(nn1Cc1ccccc1)CCSC2)c1ccccc1` on UniProt:P21554, measured inhibition at 1 µM was 9%

====

- Tested Target: human CB1 receptor (Homo sapiens)
- Sequence (P21554 whole entry): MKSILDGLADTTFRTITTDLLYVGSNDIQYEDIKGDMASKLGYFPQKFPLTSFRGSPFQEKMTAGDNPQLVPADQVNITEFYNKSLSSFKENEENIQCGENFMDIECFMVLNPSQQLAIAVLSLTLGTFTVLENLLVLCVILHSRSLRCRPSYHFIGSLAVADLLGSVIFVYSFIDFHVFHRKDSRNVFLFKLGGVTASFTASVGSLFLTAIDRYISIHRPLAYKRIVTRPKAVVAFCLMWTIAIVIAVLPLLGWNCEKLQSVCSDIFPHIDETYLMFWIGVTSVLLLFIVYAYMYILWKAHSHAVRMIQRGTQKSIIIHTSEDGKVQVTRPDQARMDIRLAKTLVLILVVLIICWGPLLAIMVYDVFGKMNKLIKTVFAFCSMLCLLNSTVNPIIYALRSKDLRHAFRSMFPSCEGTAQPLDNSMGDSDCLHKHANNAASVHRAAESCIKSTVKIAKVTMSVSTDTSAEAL
- Test Name: Binding assay, cannabinoid CB1 receptor ([3H]-CP-55,940 displacement)
- Parameters: expressed in transfected cells; host or cells: SK-N-MC cells, pcDNA3 CB-1 (human), semi-purified membranes
- Settings: test concentration 1 μM (superscript b); read-out: CB1 binding percent inhibition
So basically, the class depends on measured inhibition at 1 µM, and the ranges are 0 = under 8%, 1 = from 8% up to 20%, 2 = 20% and over

Example cases with answers are listed next.
                                   molecule  label_class
0  C[C@@H](NC(=O)/C=C/c1nn(Cc2ccccc2)c2c1CSCC2)c1ccccc1            2
1  C[C@H](NS(=O)(=O)/C=C/c1nn(Cc2ccccc2)c2c1CS(=O)(=O)CC2)c1ccccc1            0
2  CC12CCC(C1)C(C)(C)C2NC(=O)c1nn(Cc2ccccc2)c2c1C[S+]([O-])CC2 (centres unmarked)            2

Problem: State the class of the molecule shown: `C[C@@H](NC(=O)c1nn(Cc2ccccc2)c2c1CS(=O)(=O)CC2)c1ccccc1`
Solution: 2

Problem: State the class of the molecule shown: `C[C@@H](NS(=O)(=O)/C=C/c1nn(Cc2ccccc2)c2c1CS(=O)(=O)CC2)C1CCCCC1`
Solution: 0

Problem: State the class of the molecule shown: `C[C@H](NS(=O)(=O)/C=C/c1c2c(nn1Cc1ccccc1)CCS(=O)(=O)C2)C1CCCCC1`
Solution: 0

Problem: State the class of the molecule shown: `C[C@H](NS(=O)(=O)/C=C/c1nn(Cc2ccccc2)c2c1CSCC2)c1ccccc1`
Solution: 2

Problem: State the class of the molecule shown: `C[C@H](NS(=O)(=O)/C=C/c1c2c(nn1Cc1ccccc1)CCS(=O)(=O)C2)c1ccccc1`
Solution: 0

Problem: State the class of the molecule shown: `C[C@@H](NS(=O)(=O)/C=C/c1nn(Cc2ccccc2)c2c1CSCC2)C1CCCCC1`
Solution: 2

Problem: State the class of the molecule shown: `C[C@@H](NS(=O)(=O)/C=C/c1c2c(nn1Cc1ccccc1)CCSC2)C1CCCCC1`
Solution: 1

Problem: State the class of the molecule shown: `C[C@H](NS(=O)(=O)/C=C/c1nn(Cc2ccccc2)c2c1CS(=O)(=O)CC2)C1CCCCC1`
Solution: 0

Problem: State the class of the molecule shown: `C[C@@H](NS(=O)(=O)/C=C/c1nn(Cc2ccccc2)c2c1CSCC2)c1ccccc1`
Solution: 1

Problem: State the class of the molecule shown: CC(NS(=O)(=O)/C=C/c1c2c(nn1Cc1ccccc1)CC[S+]([O-])C2)c1ccccc1 (centres unmarked)
Solution: 1

Problem: State the class of the molecule shown: `C[C@@H](NS(=O)(=O)/C=C/c1c2c(nn1Cc1ccccc1)CCSC2)c1ccccc1`
Solution: 1

Problem: State the class of the molecule shown: `C[C@@H](NS(=O)(=O)/C=C/c1c2c(nn1Cc1ccccc1)CCS(=O)(=O)C2)c1ccccc1`
Solution: 1

Problem: State the class of the molecule shown: `C[C@H](NC(=O)/C=C/c1nn(Cc2ccccc2)c2c1CS(=O)(=O)CC2)c1ccccc1`
Solution: 2
